The origin of these recorded values is paper PMC9182211.

ASSAYED SYSTEM: GluA1 (glutamate ionotropic receptor AMPA type subunit 1) (Homo sapiens)
Construct: gene GRIA1; Recombinant human GluA1 (AMPA subtype) protein (Abcam ab112297)
Sequence (P42261 19-906): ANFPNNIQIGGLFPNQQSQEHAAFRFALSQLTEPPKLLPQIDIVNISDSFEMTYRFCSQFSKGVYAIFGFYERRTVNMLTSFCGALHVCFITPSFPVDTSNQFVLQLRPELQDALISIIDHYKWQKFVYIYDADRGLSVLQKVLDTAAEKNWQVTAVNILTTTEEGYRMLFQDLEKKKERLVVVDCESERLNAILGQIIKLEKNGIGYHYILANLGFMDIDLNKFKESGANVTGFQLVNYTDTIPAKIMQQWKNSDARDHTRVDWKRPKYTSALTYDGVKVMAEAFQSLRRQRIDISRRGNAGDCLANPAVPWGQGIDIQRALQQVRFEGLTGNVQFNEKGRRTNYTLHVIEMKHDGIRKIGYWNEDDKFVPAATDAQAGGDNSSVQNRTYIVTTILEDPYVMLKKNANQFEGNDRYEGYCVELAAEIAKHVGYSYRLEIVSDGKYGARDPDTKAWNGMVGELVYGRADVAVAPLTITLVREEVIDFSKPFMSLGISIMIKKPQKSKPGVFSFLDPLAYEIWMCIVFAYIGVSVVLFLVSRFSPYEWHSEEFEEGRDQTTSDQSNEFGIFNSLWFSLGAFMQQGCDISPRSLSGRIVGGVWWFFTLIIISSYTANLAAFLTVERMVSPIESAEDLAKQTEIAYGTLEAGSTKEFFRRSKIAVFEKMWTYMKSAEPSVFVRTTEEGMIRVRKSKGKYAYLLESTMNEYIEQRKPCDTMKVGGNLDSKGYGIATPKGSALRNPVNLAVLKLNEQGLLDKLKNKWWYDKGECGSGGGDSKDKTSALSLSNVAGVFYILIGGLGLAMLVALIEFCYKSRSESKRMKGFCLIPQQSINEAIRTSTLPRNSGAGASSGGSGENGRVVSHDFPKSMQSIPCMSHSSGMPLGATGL
METHOD DESCRIPTION: SPR (Biacore T200, GluA1 immobilized on CM5 chip, steady-state fit)
Format: binding
PARAMETER: pKd
// pKd: -log10(molar conc.)

Asked: Provide one value: measured pKd of O=C(/C=C/c1ccc(O)c(O)c1)O[C@@H]1C[C@](O)(C(=O)O)C[C@@H](O)[C@H]1O
Given back: 3.30
